The measured values listed here are drawn from patent US20250269003A1.

Give Ideal pH range for every item shown.
procedureSummary: Ideal pH range for peptide stability and dissolution
Assay type: physicochemical
testSettings: pH range required for stability and dissolution of the peptide

Field request: Ideal pH range | item: TSYVKVLHHMVKISG (listed as Homo sapiens) [melanoma helper peptide, amino acids 281-295 of human MAGE-3]
5.0-5.5

Entry RNGYRALMDKSLHVGTQCALTRR (listed as Homo sapiens) [melanoma helper peptide, amino acids 51-73 of human Melan-A/MART-1] : reported Ideal pH range = ?
6.0-8.0

For the sequence shown here, LLKYRAREPVTKAE (listed as Homo sapiens) [melanoma helper peptide, amino acids 121-134 of human MAGE-1,2,3,6] , give the reported Ideal pH range.
6.0-8.0

Given the sequence AQNILLSNAPLGPQFP (listed as Homo sapiens) [melanoma helper peptide, amino acids 56-70 of human tyrosinase] , what is its reported Ideal pH range?
8.5-9.0

Looking for the measured Ideal pH range of `WNRQLYPEWTEAQRLD` , can you help?
7.0-8.0

Quick one: Ideal pH range of FLLHHAFVDSIFEQWLQRHRP (listed as Homo sapiens) [melanoma helper peptide, amino acids 386-406 of human tyrosinase] ?
6.0-8.0

====

procedureSummary: Peptide encapsulation within nanoliposomes (mass spectrometry)
Type: physicochemical
testSettings: optimized formulation; based upon initial 500 μg/ml peptide concentration
reportedEndpoint: Encap. Efficiency (%)
Give the number; % is assumed, so skip it.

Look at this sequence and give its reported Encap. Efficiency. FLLHHAFVDSIFEQWLQRHRP (listed as Homo sapiens) [melanoma helper peptide, amino acids 386-406 of human tyrosinase]
11.72

Data request, read-out Encap. Efficiency, for LLKYRAREPVTKAE (listed as Homo sapiens) [melanoma helper peptide, amino acids 121-134 of human MAGE-1,2,3,6]
11.45

Bench note: what Encap. Efficiency did AQNILLSNAPLGPQFP (listed as Homo sapiens) [melanoma helper peptide, amino acids 56-70 of human tyrosinase] show?
1.25

What value of Encap. Efficiency has been recorded for this entry: TSYVKVLHHMVKISG (listed as Homo sapiens) [melanoma helper peptide, amino acids 281-295 of human MAGE-3]
28.27

Consider the sequence shown here: `WNRQLYPEWTEAQRLD` What is its recorded Encap. Efficiency?
1.53

Item RNGYRALMDKSLHVGTQCALTRR (listed as Homo sapiens) [melanoma helper peptide, amino acids 51-73 of human Melan-A/MART-1] has what recorded Encap. Efficiency?
3.29

====

procedureSummary: Peptide encapsulation within nanoliposomes (mass spectrometry)
Type: physicochemical
testSettings: optimized versus original mass encapsulation
Give measured Encap. improvement for each item. Keep answers brief.
Give a bare numeral; the unit X is implied.

Query (sequence): RNGYRALMDKSLHVGTQCALTRR (listed as Homo sapiens) [melanoma helper peptide, amino acids 51-73 of human Melan-A/MART-1] ; field requested: Encap. improvement
0.85

# Encap. improvement lookup, item LLKYRAREPVTKAE (listed as Homo sapiens) [melanoma helper peptide, amino acids 121-134 of human MAGE-1,2,3,6]
1.66

Given the entry FLLHHAFVDSIFEQWLQRHRP (listed as Homo sapiens) [melanoma helper peptide, amino acids 386-406 of human tyrosinase] , report its measured Encap. improvement.
2.08

====

procedureSummary: Peptide encapsulation within nanoliposomes (mass spectrometry)
Type: physicochemical
testSettings: new liposome formulation (charge and buffer B1-B4) keeping optimal pH; full vaccine; n = 3 separate experiments in triplicate
reportedEndpoint: log10(Optimized mass encapsulation) (log10 of the value in µg/mL)
Answers are given as log10 of Optimized mass encapsulation in µg/mL.

Field request: log10(Optimized mass encapsulation) | item: FLLHHAFVDSIFEQWLQRHRP (listed as Homo sapiens) [melanoma helper peptide, amino acids 386-406 of human tyrosinase]
1.77

Report log10(Optimized mass encapsulation) for RNGYRALMDKSLHVGTQCALTRR (listed as Homo sapiens) [melanoma helper peptide, amino acids 51-73 of human Melan-A/MART-1] please.
1.28

Recorded log10(Optimized mass encapsulation) of `WNRQLYPEWTEAQRLD` , please.
0.88

May I ask what log10(Optimized mass encapsulation) has been recorded for LLKYRAREPVTKAE (listed as Homo sapiens) [melanoma helper peptide, amino acids 121-134 of human MAGE-1,2,3,6] ?
1.76

For the sequence TSYVKVLHHMVKISG (listed as Homo sapiens) [melanoma helper peptide, amino acids 281-295 of human MAGE-3] , what log10(Optimized mass encapsulation) is on record?
2.15

Which log10(Optimized mass encapsulation) is reported for this sequence? AQNILLSNAPLGPQFP (listed as Homo sapiens) [melanoma helper peptide, amino acids 56-70 of human tyrosinase]
0.80

====

procedureSummary: Peptide encapsulation within nanoliposomes (mass spectrometry)
Format: physicochemical
testSettings: optimized versus original mass encapsulation
Can you tell me Encap. improvement for the items I'm about to list?
Entry rule: numbers only, all in X.

Requested field: Encap. improvement. Item: `WNRQLYPEWTEAQRLD`
1.59

Any idea what Encap. improvement was measured for TSYVKVLHHMVKISG (listed as Homo sapiens) [melanoma helper peptide, amino acids 281-295 of human MAGE-3] ?
831

Any idea what Encap. improvement was measured for AQNILLSNAPLGPQFP (listed as Homo sapiens) [melanoma helper peptide, amino acids 56-70 of human tyrosinase] ?
312

====

procedureSummary: Peptide encapsulation within nanoliposomes (mass spectrometry)
Format: physicochemical
testSettings: neutral formulation and 1X PBS
Kindly state log10 Original mass encapsulation for each of the entries shown.
The common logarithm of Original mass encapsulation in µg/mL is what is listed.

Find the recorded log10 Original mass encapsulation belonging to AQNILLSNAPLGPQFP (listed as Homo sapiens) [melanoma helper peptide, amino acids 56-70 of human tyrosinase] and report it.
-1.70

Quick one: log10 Original mass encapsulation of TSYVKVLHHMVKISG (listed as Homo sapiens) [melanoma helper peptide, amino acids 281-295 of human MAGE-3] ?
-0.77

Give the measured log10 Original mass encapsulation of FLLHHAFVDSIFEQWLQRHRP (listed as Homo sapiens) [melanoma helper peptide, amino acids 386-406 of human tyrosinase] .
1.45

I have this sequence here, LLKYRAREPVTKAE (listed as Homo sapiens) [melanoma helper peptide, amino acids 121-134 of human MAGE-1,2,3,6] , and I need its recorded log10 Original mass encapsulation.
1.54

Name the recorded log10 Original mass encapsulation for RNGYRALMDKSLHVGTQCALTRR (listed as Homo sapiens) [melanoma helper peptide, amino acids 51-73 of human Melan-A/MART-1] .
1.35

What does the data say about its log10 Original mass encapsulation? Entry: `WNRQLYPEWTEAQRLD`
0.68
